Molecular target: UniProtKB Q96DB2
Test: Inhibition of human full length recombinant HDAC11 using p53 (379 to 382 residues) (RHKK(Ac)AMC) as substrate preincubated for 5 to 10 mins followed by substrate addition and measured after 2 hrs by fluorescence method
measured.quantity: pIC50
pIC50 (log units): -log10 of the concentration in mol/L.

Q: Please supply the value of reported pIC50 for the item "O=C(NO)c1ccc(CN2CCCc3cc(Cl)ccc32)cc1"
A: 5.22

----------
Target: Histone deacetylase 11 (Homo sapiens)
Sequence (Q96DB2 whole entry, the tested form may be a part): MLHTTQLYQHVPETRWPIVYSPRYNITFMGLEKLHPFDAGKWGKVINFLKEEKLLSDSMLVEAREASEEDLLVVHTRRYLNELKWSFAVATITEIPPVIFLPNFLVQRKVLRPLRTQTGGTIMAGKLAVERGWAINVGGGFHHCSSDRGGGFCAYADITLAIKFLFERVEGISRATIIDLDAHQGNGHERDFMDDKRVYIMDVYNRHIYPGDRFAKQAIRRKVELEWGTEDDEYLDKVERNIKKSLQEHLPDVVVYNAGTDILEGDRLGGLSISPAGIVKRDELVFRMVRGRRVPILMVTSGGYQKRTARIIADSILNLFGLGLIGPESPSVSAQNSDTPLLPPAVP
Experiment: Inhibition of HDAC11 (unknown origin) using p53 (379 to 382 residues)(RHKK(Ac)-AMC) as substrate by fluorescent method
measured.quantity: pIC50
pIC50 (log units): -log10 of the concentration in mol/L.

Q: Please supply the value of reported pIC50 for the item Cn1cc(-c2ccc(S(=O)(=O)n3ccc(/C=C/C(=O)Nc4ccccc4N)c3)cc2)cn1 [DOMATINOSTAT]
A: 5.01

----------
Target: UniProt Q13547
Sequence (Q13547 whole entry): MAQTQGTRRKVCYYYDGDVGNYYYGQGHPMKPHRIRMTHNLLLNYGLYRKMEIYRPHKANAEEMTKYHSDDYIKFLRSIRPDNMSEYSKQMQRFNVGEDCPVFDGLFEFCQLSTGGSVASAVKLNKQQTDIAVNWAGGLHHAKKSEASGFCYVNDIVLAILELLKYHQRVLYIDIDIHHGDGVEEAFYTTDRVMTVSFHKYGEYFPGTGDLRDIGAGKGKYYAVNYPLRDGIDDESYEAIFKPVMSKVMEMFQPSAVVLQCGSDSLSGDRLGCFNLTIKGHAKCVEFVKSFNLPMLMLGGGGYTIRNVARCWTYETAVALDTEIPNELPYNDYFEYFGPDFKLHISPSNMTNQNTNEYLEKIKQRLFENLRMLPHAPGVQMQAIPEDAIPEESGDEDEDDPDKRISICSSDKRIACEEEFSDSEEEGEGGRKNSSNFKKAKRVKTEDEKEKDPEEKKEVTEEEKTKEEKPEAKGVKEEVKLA
Experiment: Inhibition of HDAC1 (unknown origin) using carboxyfluorescein (FAM)-labeled acetylated peptide substrate preincubated for 3 hrs by microfluidic capillary electrophoresis
measured.quantity: IC50
Returns: string containing the numeric result and its unit.

Q: Please supply the value of reported IC50 for the item "CC(=O)Nc1ccc(C(=O)Nc2ccc(F)cc2N)cc1"
A: 1000 nM

----------
Molecular target: UniProt P56524
Sequence (P56524 whole entry): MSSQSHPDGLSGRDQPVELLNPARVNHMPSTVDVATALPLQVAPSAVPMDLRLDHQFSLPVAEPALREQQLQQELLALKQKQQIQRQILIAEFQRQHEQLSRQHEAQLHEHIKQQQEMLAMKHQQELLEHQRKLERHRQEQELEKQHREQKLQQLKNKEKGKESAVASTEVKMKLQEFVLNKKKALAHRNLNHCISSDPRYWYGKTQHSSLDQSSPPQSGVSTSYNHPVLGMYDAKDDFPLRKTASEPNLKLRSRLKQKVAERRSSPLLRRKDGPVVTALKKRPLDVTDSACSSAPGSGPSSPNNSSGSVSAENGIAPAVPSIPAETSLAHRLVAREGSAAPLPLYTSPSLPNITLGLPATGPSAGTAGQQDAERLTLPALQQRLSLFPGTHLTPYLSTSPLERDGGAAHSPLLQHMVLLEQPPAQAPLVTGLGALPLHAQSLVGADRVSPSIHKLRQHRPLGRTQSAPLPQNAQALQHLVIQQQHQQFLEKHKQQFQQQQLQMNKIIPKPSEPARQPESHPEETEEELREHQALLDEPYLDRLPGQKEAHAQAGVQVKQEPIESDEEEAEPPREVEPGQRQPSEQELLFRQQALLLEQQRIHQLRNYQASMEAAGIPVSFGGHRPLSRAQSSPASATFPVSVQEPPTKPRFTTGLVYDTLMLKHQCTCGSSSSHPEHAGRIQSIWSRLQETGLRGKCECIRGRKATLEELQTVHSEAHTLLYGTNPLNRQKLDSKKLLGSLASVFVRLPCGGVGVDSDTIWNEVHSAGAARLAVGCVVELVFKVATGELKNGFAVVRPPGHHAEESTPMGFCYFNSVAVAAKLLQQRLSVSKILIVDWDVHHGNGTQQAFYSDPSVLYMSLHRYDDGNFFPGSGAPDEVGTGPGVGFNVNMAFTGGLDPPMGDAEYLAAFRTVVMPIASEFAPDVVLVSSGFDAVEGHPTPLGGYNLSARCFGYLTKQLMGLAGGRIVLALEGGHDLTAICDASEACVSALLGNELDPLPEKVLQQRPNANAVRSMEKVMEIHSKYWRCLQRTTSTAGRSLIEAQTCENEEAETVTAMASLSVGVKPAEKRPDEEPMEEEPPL
Assay: Inhibition of HDAC4 (unknown origin) using HDAC class IIa substrate (trifluoroacetyl-lysine-AMC) as substrate by fluorescent method
measured.quantity: IC50

Q: Please supply the value of reported IC50 for the item "Cn1cc(-c2ccc(S(=O)(=O)n3ccc(/C=C/C(=O)Nc4ccccc4N)c3)cc2)cn1"
A: > 10 µM

----------
Target: Histone deacetylase 5 (Homo sapiens, UniProt Q9UQL6)
Sequence (Q9UQL6 whole entry): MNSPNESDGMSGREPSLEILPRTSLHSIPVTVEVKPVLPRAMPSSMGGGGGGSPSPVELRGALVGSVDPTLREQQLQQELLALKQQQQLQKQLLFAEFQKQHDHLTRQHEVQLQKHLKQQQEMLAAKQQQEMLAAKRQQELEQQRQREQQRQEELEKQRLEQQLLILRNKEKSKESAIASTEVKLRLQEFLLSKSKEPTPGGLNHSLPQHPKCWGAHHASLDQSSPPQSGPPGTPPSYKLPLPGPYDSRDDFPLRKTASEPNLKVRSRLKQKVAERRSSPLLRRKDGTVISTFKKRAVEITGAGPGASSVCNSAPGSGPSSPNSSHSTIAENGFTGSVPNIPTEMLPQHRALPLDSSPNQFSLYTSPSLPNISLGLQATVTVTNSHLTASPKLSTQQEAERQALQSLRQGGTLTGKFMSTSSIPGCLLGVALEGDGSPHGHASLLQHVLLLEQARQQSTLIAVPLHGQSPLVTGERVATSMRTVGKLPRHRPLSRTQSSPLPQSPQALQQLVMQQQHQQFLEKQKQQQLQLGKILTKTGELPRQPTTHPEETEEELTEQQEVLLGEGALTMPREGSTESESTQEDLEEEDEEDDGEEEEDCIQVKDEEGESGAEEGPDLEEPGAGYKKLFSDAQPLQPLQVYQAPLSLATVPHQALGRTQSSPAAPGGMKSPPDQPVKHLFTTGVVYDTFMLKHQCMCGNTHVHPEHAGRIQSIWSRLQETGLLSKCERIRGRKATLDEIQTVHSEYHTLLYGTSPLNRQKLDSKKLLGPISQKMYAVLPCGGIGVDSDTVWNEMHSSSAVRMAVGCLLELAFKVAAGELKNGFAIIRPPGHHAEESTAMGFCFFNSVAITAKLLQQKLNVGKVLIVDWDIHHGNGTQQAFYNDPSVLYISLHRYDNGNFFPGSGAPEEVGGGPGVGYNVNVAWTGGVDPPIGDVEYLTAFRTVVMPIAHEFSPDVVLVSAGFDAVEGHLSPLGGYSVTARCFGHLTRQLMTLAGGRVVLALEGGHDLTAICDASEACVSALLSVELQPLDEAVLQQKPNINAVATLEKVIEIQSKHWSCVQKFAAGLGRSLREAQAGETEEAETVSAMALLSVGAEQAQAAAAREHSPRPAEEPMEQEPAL
Experiment: Inhibition of HDAC5 (unknown origin)
pIC50: −log10 of the molar value.
measured.quantity: pIC50

Q: Please supply the value of reported pIC50 for the item "CCCCCCCCCCCCCCCCNNC(=O)c1cccs1"
A: < 5.00

----------
Molecular target: Histone deacetylase 5 (Homo sapiens, UniProt Q9UQL6)
Experiment: Inhibition of human HDAC5 using carboxyfluorescein (FAM)-labeled acetylated peptide substrate by microfluidic capillary electrophoresis
pIC50: −log10 of the molar value.
measured.quantity: pIC50

Q: Please supply the value of reported pIC50 for the item "CC(=O)Nc1ccc(C(=O)Nc2ccc(F)cc2N)cc1"
A: < 4.52

----------
Biological target: Histone deacetylase 9 (Homo sapiens)
Sequence (Q9UKV0 whole entry, the tested form may be a part): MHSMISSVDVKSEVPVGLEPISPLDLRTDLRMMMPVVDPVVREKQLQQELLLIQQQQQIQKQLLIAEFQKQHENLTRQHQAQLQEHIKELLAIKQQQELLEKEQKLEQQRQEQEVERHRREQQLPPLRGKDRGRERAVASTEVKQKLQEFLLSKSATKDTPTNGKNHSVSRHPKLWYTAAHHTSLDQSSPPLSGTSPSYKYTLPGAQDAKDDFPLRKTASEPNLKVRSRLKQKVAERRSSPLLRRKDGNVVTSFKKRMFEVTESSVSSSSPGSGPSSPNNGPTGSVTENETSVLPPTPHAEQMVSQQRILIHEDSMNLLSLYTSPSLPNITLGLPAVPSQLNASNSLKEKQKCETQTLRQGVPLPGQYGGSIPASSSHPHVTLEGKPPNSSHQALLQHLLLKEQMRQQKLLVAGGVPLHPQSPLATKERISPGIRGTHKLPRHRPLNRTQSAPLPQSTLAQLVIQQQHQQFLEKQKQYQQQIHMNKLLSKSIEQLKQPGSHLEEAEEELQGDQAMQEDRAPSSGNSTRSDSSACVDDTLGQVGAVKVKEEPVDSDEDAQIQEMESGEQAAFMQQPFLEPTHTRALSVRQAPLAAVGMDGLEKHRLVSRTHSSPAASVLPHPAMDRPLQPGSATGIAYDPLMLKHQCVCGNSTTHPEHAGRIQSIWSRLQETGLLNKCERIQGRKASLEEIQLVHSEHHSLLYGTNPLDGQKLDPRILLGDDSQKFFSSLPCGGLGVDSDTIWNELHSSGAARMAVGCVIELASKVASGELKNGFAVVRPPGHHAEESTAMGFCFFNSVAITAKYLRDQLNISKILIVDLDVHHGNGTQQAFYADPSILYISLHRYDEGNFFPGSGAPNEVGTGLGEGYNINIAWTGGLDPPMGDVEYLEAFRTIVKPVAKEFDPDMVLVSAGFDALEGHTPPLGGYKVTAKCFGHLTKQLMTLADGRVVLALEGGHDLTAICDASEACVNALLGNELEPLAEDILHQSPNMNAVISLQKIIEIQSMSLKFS
Assay: Inhibition of C-terminal His-tagged human HDAC9 (604 to 1066 residues) expressed in baculovirus infected sf9 cells using Boc-L-Lys-MCA as substrate preincubated for 15 mins followed by substrate addition and measured after 60 mins by fluorescence method
measured.quantity: IC50 (nM)
Give just the number in nM; leave the unit off.

Q: Please supply the value of reported IC50 for the item "CCN(CC)Cc1ccc2cc(COC(=O)Nc3ccc(C(=O)NO)cc3)ccc2c1"
A: 512
